biological target: furin, P09958; experiment: furin cleavage Z-score vs untreated control; higher = more cleavage, active = 3.5 or more, inactive = 1 or less, 8 variable residues between constant flanks; conditions: 7.5 min;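 note: purified furin at 1:10 enzyme:substrate in 50 mM HEPES pH 7.5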
Sequence (P09958 whole entry): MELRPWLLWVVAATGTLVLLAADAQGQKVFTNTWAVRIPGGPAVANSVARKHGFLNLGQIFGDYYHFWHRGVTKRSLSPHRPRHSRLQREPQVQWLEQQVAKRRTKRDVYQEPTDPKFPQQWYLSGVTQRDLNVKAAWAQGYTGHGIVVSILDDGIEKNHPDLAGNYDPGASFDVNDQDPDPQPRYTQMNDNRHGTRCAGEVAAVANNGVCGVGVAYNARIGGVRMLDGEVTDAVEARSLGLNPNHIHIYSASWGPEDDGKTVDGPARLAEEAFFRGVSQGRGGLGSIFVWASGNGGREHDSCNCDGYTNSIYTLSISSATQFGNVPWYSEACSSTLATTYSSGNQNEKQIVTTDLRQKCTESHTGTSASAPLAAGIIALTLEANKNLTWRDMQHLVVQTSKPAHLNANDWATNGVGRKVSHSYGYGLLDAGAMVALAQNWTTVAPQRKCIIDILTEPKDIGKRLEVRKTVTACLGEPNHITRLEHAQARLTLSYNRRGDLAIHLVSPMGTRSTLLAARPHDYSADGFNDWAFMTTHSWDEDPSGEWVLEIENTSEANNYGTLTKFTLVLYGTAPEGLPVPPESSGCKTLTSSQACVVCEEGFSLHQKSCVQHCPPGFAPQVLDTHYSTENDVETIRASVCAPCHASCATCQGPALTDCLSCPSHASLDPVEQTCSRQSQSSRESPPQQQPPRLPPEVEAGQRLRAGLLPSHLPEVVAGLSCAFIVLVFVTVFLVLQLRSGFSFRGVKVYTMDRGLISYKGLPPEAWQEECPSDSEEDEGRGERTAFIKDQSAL
Some of the results follow. No count for the full screen is at hand.
measured.metric: furin cleavage Z-score

In [3]: df
Out[3]:
                         chain         measured_metric  observed
0  CAAAEEQKLPAGNASASA [HC1378]  furin cleavage Z-score     -1.36
1  CAIEMEECSQAGNASASA [HC1784]  furin cleavage Z-score     0.115
2     CAMEEGSQHLAGNASASA [HC2]  furin cleavage Z-score   -0.0457
3   CAKAVDFIPVAGNASASA [HC756]  furin cleavage Z-score    -0.823
